In this section, each of the compounds is paired with its reported pKa.
Method description: Dissociation constant, pKa of the compound
Format: physicochemical
# output: bare number, no unit

* F[C@@H]1CNCC[C@H]1c1cc2nc(Nc3cnn([C@@H]4CC4(F)F)c3Cl)ncc2cc1Cl | 7.79

Consider the additional compound presented here.
Given item O[C@H]1COC[C@H]1N1CC[C@@H](c2cc3nc(Nc4cnn([C@@H]5CC5(F)F)c4Cl)ncc3cc2Cl)[C@H](F)C1 , the value recorded as its pKa is 5.65

* * *

Method description: Intrinsic clearance in Wistar Han rat at 2 mg/kg, iv by LC-MS/MS analysis
Assay type: ADME, organism-based
Run conditions: in vivo
# if value of CL reaches 300 mL/min/kg, tag true; if it stays below, tag false

A selection of reference data follows.
- Cc1c(Nc2ncc3cc(Cl)c(C4CCN(C5COC5)CC4)cc3n2)cnn1C1CC1: false
- Cc1c(Nc2ncc3cc(Cl)c(C4CCN([C@@H]5COC[C@@H]5O)CC4)cc3n2)cnn1[C@@H]1CC1(F)F: true
- O[C@H]1COC[C@H]1N1CC[C@@H](c2cc3nc(Nc4cnn([C@@H]5CC5(F)F)c4Cl)ncc3cc2Cl)[C@H](F)C1: true

Data request: Confirm if CL reported for the compound CC(C)(O)Cn1ncc(Nc2ncc3cc(Cl)c(C4CCN(C5COC5)CC4)cc3n2)c1Cl is 300 mL/min/kg or above.
Data returned: false

Data request: Confirm if CL reported for the compound FC1CN(C2COC2)CCC1c1cc2nc(Nc3cnn(C4CC4)c3Cl)ncc2cc1Cl (stereo not given) is 300 mL/min/kg or above.
Data returned: true
